Biological target: furin, P09958;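 further: purified furin at 1:10 enzyme:substrate in 50 mM HEPES pH 7.5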
Sequence (P09958 whole entry): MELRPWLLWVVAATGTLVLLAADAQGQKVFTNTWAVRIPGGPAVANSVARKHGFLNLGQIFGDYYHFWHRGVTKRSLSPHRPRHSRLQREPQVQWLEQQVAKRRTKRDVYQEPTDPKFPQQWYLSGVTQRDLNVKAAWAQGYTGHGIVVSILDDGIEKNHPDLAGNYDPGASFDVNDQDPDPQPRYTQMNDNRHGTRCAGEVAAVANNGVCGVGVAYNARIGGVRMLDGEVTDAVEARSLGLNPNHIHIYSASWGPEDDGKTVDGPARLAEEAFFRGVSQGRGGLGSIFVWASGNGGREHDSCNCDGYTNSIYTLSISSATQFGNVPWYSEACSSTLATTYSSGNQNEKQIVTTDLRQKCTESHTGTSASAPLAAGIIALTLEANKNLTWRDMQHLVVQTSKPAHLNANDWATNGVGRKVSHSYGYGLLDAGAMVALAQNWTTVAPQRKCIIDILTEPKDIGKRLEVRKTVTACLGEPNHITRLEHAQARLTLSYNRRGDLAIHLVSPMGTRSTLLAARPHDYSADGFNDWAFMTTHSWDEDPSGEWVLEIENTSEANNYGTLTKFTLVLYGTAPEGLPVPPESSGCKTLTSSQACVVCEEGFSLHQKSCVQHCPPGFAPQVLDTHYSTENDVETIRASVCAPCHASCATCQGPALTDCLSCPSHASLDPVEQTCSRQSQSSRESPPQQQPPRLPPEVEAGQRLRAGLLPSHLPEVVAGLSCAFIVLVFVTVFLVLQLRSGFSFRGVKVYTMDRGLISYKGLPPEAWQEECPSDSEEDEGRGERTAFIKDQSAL
Experiment: furin cleavage Z-score vs untreated control; higher = more cleavage, active = 3.5 or more, inactive = 1 or less, 8 variable residues between constant flanks
Settings: 7.5 min
Some of the results follow. No count for the full screen is at hand.
readout: furin cleavage Z-score
Number only, please.

CASDFKTWLKAGNASASA [HC1155]: -1.27

Which furin cleavage Z-score is reported for this sequence? CAVVCCSMPYAGNASASA [HC2079]
1.07

Which furin cleavage Z-score is reported for this sequence? CATHFFSVLIAGNASASA [HC1584]
-0.934

Which furin cleavage Z-score is reported for this sequence? CAVVCCSMSEAGNASASA [HC2092]
0.169

Which furin cleavage Z-score is reported for this sequence? CAGRSRELRQAGNASASA [FS-166]
2.87

Which furin cleavage Z-score is reported for this sequence? CASHPCSAHLAGNASASA [HC2495]
1.02

Which furin cleavage Z-score is reported for this sequence? CAGRSRDLRGAGNASASA [FS-165]
-0.794
